Tested on: senescent cells
Assay: Evaluation of senolytic effects of 25HC, oxysterols and 25HC analogs in cell culture
Format: cell-based
Details: cell type not stated

>  <Molecule>
C[C@H](CCCC(C)(C)O)[C@H]1CC[C@H]2[C@@H]3[C@H](O)C=C4C[C@@H](O)CC[C@]4(C)[C@H]3CC[C@]12C [7α,25-Dihydroxycholesterol]

>  <Senolytic effect>
novel senolytics

$$$$
>  <Molecule>
CC(C)CC[C@@H](O)[C@@H](C)[C@H]1CC[C@H]2[C@@H]3CC=C4C[C@@H](O)CC[C@]4(C)[C@H]3CC[C@]12C [22(R)HC, 22(R)-Hydroxycholesterol]

>  <Senolytic effect>
novel senolytics

$$$$
